- target.system: human GLP-1 receptor (human, UniProt P43220 24-463)
- experiment.notes: cell-based or functional assay
metric: hGLPIR cAMP EC50 ratio

binder: YXEGTFTSDYSIXLDTKAQXAFIEYLIEGG (Aib2; αMeL13; K17((2-[2-(2-Amino-ethoxy)-ethoxy]-acetyl)2-(γGlu)-CO-(CH2)18-CO2H); Aib20; C-terminal NH2) [Peptide 65]
observed.measurement: 0.233
--
binder: YXEGTXTSDYSIXLDEKAQXEFIXYLIEGGPSSGAPPPS (Aib2; αMeF(2F)6; αMeL13; K17((2-[2-(2-Amino-ethoxy)-ethoxy]-acetyl)2-(γGlu)-CO-(CH2)14-CO2H); Aib20; D-Glu24; C-terminal NH2) [Peptide 208]
observed.measurement: 0.587
--
binder: YXEGTFTSDYSIXLDKIAQXAFIEYLIKGG (Aib2; αMeL13; Aib20; K28((2-[2-(2-Amino-ethoxy)-ethoxy]-acetyl)2-(γGlu)-CO-(CH2)18-CO2H); C-terminal NH2) [Peptide 97]
observed.measurement: 0.0268
--
binder: YXEGTXTSDVSIXLDXKAQXAFIXXLIEGGPSSGAPPPS (not fully specified; Aib2; αMeF(2F)6; αMeL13; Orn16; K17((2-[2-(2-Amino-ethoxy)-ethoxy]-acetyl)2-(γGlu)-CO-(CH2)16-CO2H); Aib20; D-Glu24; αMeY25; C-terminal NH2) [Peptide 242]
observed.measurement: 1.96
--
binder: YXEGTXTSDXSIXLDXKAQXTFIXXLIEGGPSSGAPPPS (not fully specified; Aib2; αMeF(2F)6; 4Pal10; αMeL13; Orn16; K17((2-[2-(2-Amino-ethoxy)-ethoxy]-acetyl)2-(γGlu)-CO-(CH2)16-CO2H); Aib20; D-Glu24; αMeY25; C-terminal NH2) [Peptide 239]
observed.measurement: 0.987
